System: SK-LU-1
Assay: Cytotoxicity against human SKLU1 cells assessed as growth inhibition after 48 hrs by SRB assay
Format: functional, cell-based
Details: SK-LU-1, 48 h
property: pIC50
Scale for pIC50: -log10 of concentration given in mol/L; no unit attached.

CCC/C=C1\OC(=O)C2=C[C@H]3CCC21[C@]1(OC(=O)C2=C1CCC=C2)[C@@H]3CCC (mixture of isomers); 5.15
C=C1C(=O)O[C@@H]2C[C@@H](C)[C@@H]3C=CC(=O)[C@@]3(C)[C@@H](O)[C@H]12 [HELENALIN]; 6.68

Ask: GET /values?readout=pIC50&item= CCCC[C@]12O[C@@]34CCCC=C3C(=O)O[C@]43[C@@H](CCC)[C@@H]4C=C(C(=O)N1[C@H](C)c1ccccc1)[C@@]32CC4
Reply: 5.39

Ask: GET /values?readout=pIC50&item= CCCC[C@]12O[C@@]34CCCC=C3C(=O)O[C@]43[C@@H](CCC)[C@H]4C=C(C(=O)N1[C@@H](C)c1ccccc1)[C@@]32CC4
Reply: 5.37

Ask: GET /values?readout=pIC50&item= CCCC[C@@]12O[C@]34CCCC=C3C(=O)O[C@@]43[C@H](CCC)[C@H]4C=C(C(=O)N1[C@H](C)c1ccccc1)[C@]32CC4
Reply: 5.23

Ask: GET /values?readout=pIC50&item= CCC/C=C1\OC(=O)C2=C1CC[C@H]1[C@@H]2[C@@]2(OC(=O)C3=C2CCC=C3)[C@H]1CCC (racemic)
Reply: 4.88

Ask: GET /values?readout=pIC50&item= CCCC[C@@]12O[C@]34CCCC=C3C(=O)O[C@@]43[C@H](CCC)[C@@H]4C=C(C(=O)N1[C@@H](C)c1ccccc1)[C@]32CC4
Reply: 5.31
